BCL-2 (binding to BAK peptide) (Homo sapiens, UniProt P10415) IC50 data
Sequence (P10415 whole entry): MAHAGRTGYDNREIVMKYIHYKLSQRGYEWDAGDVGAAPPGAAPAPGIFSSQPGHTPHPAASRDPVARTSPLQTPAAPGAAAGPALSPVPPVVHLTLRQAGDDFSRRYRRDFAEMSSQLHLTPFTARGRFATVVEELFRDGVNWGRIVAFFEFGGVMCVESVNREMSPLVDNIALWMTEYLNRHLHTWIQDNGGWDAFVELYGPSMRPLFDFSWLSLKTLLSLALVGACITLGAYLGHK
Readout Label: IC50

CCCCN(CCCC)C(=O)c1cc(C)n(-c2ccc(NC(=O)c3csc(N4CCOCC4)n3)cc2C(=O)N2Cc3ccccc3C[C@H]2CO)n1    237 to 257 nM
CCCCN(CCCC)C(=O)c1cc(C)n(-c2ccc(NC(=O)CCC3COc4ccccc43)cc2C(=O)N2Cc3ccccc3C[C@H]2CO)n1 (stereo partly drawn)    50.2 to 53.1 nM
CCCCN(CCCC)C(=O)c1cc(C)n(-c2ccc(NC(=O)Cc3c(C)[nH]c4c(F)cccc34)cc2C(=O)N2Cc3ccccc3C[C@H]2CO)n1    58.3 to 61.2 nM
